Species on record: Rattus norvegicus
Assay: DrugMatrix - Regimen: Daily Repeat
Format: toxicity, organism-based, Sprague-Dawley
Set-up: regimen Daily Repeat, gender Male, age 6-8 weeks
Details: in vivo, po, 0 mg/kg, 120 h, tissue Plasma, route oral GAVAGE, dose level Control, time 5 day, vehicle .5 % CMC
Assay endpoint: ASPARTATE AMINOTRANSFERASE (u/L)

>>> print(df.to_string())
                                   compound  readout_units  result
0     CN1CCN(C2=Nc3cc(Cl)ccc3Nc3ccccc32)CC1            u/L   60.83
1  CCCCC1=NC2(CCCC2)C(=O)N1Cc1ccc(-c2ccccc2-c2nnn[nH]2)cc1            u/L   87.67
2  CCC1=C(C)CN(C(=O)NCCc2ccc(S(=O)(=O)NC(=O)N[C@H]3CC[C@H](C)CC3)cc2)C1=O [GLIMEPIRIDE]            u/L   94.67
3  C[C@H]1[C@H](NC(=O)/C(=N\OC(C)(C)C(=O)O)c2csc(N)n2)C(=O)N1S(=O)(=O)O            u/L    76.5

###

Overview of recorded HEMATOCRIT for various compounds
Species on record: Rattus norvegicus
Experiment: DrugMatrix - Regimen: Daily Repeat
Assay type: toxicity, organism-based, Sprague-Dawley
Parameters: regimen Daily Repeat, gender Male, age 6-8 weeks
Conditions: in vivo, po, 0 mg/kg, 72 h, tissue Blood, route oral GAVAGE, dose level Control, time 3 day, […]
Assay endpoint: HEMATOCRIT (%)

>>> print(df.to_string())
                                   compound  assay_endpoint  result
0           Cc1ccc(C)c(OCCCC(C)(C)C(=O)O)c1      HEMATOCRIT   32.58
1      ClC(Cl)(Cl)Cl [CARBON TETRACHLORIDE]      HEMATOCRIT   34.48
2  CCCCC(=O)N(Cc1ccc(-c2ccccc2-c2nnn[nH]2)cc1)[C@H](C(=O)O)C(C)C      HEMATOCRIT   33.88
3                     CC(=O)Oc1ccccc1C(=O)O      HEMATOCRIT   32.78
4  CCc1ccc(CCOc2ccc(CC3SC(=O)NC3=O)cc2)nc1 (centres undefined)      HEMATOCRIT   33.62
5  CC(C)c1c(C(=O)Nc2ccccc2)c(-c2ccccc2)c(-c2ccc(F)cc2)n1CC[C@@H](O)C[C@@H](O)CC(=O)O      HEMATOCRIT   32.32
6                                   c1ccoc1      HEMATOCRIT   43.77
7  CS(=O)(=O)Nc1ccc([N+](=O)[O-])cc1Oc1ccccc1 [NIMESULIDE]      HEMATOCRIT    33.7
8      O=c1c(-c2ccc(O)cc2)coc2cc(O)cc(O)c12      HEMATOCRIT   32.32

###

Species on record: Rattus norvegicus
Assay: DrugMatrix - Regimen: Daily Repeat
Format: toxicity, organism-based, Sprague-Dawley
Parameters: regimen Daily Repeat, gender Male, age 6-8 weeks
Conditions: in vivo, po, 0 mg/kg, 72 h, tissue Plasma, route oral GAVAGE, dose level Control, time 3 day, […]
Hi, to clarify the labels: Yes covers CARBON DIOXIDE from 30 mmol/L upward, No covers anything below 30 mmol/L.

In [3]: df
Out[3]:
                                   compound  group
0  CS(=O)(=O)Nc1ccc([N+](=O)[O-])cc1Oc1ccccc1 [NIMESULIDE]    Yes
1                                   c1ccoc1     No
2  CCc1ccc(CCOc2ccc(CC3SC(=O)NC3=O)cc2)nc1 (centres undefined)    Yes
3                     CC(=O)Oc1ccccc1C(=O)O    Yes
4  CCCCC(=O)N(Cc1ccc(-c2ccccc2-c2nnn[nH]2)cc1)[C@H](C(=O)O)C(C)C     No
5      ClC(Cl)(Cl)Cl [CARBON TETRACHLORIDE]    Yes
